Molecular target: JAK2 (catalytic domain, His-tag) (Homo sapiens, UniProt O60674)
Construct: All four purified enzymes contain only the catalytic domain; His (N); purchased Carna Biosciences, Inc; host or cells: baculovirus expression system
Sequence (O60674 849-1124 limits assumed): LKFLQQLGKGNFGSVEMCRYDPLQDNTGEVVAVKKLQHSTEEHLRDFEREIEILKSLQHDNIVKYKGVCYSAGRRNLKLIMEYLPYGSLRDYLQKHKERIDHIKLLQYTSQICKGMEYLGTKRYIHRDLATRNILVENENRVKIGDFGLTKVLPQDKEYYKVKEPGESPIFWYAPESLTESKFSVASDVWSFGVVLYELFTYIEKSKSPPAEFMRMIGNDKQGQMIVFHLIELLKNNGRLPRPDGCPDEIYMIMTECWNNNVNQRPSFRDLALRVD
Experiment: JAK kinase assay (HTRF, phosphorylation of TK substrate-biotin), JAK2
Format: biochemical
Conditions: HTRF assay, ATP at Km (4 μM); read-out: JAK2 kinase inhibitory activity (EC50 indicator)

>  <COMPOUND>
Cc1ccc(C(=O)N2CCN(c3ccnc4[nH]ccc34)CC23CC3)s1 [Example 231]

>  <ASSAY_TARGET>
JAK2 (catalytic domain, His-tag) (Homo sapiens, UniProt O60674)

>  <EC50>
< 100 nM

$$$$
>  <COMPOUND>
N#CCc1cccc(CC(=O)N2[C@@H]3CC[C@@H]2CN(c2ncnc4[nH]ccc24)C3)c1 [Example 346]

>  <ASSAY_TARGET>
JAK2 (catalytic domain, His-tag) (Homo sapiens, UniProt O60674)

>  <EC50>
100 to 500 nM

$$$$
>  <COMPOUND>
O=C(c1ccc(S(=O)(=O)C2CCCC2)cc1)N1CCN(c2ncnc3[nH]ccc23)CC12CC2 [Example 407]

>  <ASSAY_TARGET>
JAK2 (catalytic domain, His-tag) (Homo sapiens, UniProt O60674)

>  <EC50>
< 100 nM

$$$$
>  <COMPOUND>
COc1cnc2[nH]ccc2c1N1CCN(C(=O)c2ccc(C#N)cc2)C2(CC2)C1 [Example 286]

>  <ASSAY_TARGET>
JAK2 (catalytic domain, His-tag) (Homo sapiens, UniProt O60674)

>  <EC50>
> 500 nM

$$$$
>  <COMPOUND>
CS(=O)(=O)c1ccc(CC(=O)N2CCN(c3ncnc4[nH]ccc34)CC23CC3)cc1 [Example 420]

>  <ASSAY_TARGET>
JAK2 (catalytic domain, His-tag) (Homo sapiens, UniProt O60674)

>  <EC50>
< 100 nM

$$$$
>  <COMPOUND>
N#Cc1ccc2c(C(=O)N3CCN(c4ncnc5[nH]ccc45)CC34CC4)n[nH]c2c1 [Example 301]

>  <ASSAY_TARGET>
JAK2 (catalytic domain, His-tag) (Homo sapiens, UniProt O60674)

>  <EC50>
< 100 nM

$$$$
>  <COMPOUND>
Cc1sc(C(=O)N2CCN(c3ncnc4[nH]ccc34)CC23CC3)cc1S(N)(=O)=O [Example 374]

>  <ASSAY_TARGET>
JAK2 (catalytic domain, His-tag) (Homo sapiens, UniProt O60674)

>  <EC50>
< 100 nM

$$$$
>  <COMPOUND>
N#Cc1ccc(C(=O)N2[C@@H]3CC[C@@H]2CN(c2ncnc4[nH]ccc24)C3)cc1F [Example 350]

>  <ASSAY_TARGET>
JAK2 (catalytic domain, His-tag) (Homo sapiens, UniProt O60674)

>  <EC50>
< 100 nM

$$$$
